# ASSAY SYSTEM: IKZF2 (Helios) (Homo sapiens (Human), UniProt Q96SW2+Q9UKS7)
# Sequence (Q9UKS7 whole entry): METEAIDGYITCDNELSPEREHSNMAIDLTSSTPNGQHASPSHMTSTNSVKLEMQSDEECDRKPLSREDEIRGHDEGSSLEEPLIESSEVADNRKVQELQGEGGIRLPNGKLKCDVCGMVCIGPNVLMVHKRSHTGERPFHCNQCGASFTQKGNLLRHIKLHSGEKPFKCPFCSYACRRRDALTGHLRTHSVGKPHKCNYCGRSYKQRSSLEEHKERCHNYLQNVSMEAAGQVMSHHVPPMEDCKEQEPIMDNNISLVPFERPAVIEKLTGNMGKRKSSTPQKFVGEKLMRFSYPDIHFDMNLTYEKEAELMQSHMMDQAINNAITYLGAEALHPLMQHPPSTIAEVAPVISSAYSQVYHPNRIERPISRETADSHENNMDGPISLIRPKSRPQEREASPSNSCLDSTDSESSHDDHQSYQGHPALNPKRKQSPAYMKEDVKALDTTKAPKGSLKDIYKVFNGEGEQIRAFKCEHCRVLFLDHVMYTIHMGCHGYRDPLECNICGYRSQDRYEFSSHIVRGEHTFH
# Sequence (Q96SW2 whole entry): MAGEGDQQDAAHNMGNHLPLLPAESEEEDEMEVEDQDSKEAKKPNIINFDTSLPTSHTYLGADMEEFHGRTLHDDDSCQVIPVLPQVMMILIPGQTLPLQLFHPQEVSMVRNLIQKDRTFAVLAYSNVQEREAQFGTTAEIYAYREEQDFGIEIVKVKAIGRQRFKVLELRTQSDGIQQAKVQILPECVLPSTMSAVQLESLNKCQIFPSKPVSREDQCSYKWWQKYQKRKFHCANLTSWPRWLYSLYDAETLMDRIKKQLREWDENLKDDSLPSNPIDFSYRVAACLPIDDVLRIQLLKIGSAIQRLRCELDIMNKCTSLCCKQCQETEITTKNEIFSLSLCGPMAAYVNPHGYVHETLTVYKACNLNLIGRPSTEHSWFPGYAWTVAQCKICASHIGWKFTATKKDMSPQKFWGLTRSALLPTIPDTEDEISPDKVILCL
# Sequence (Q16531 whole entry partner): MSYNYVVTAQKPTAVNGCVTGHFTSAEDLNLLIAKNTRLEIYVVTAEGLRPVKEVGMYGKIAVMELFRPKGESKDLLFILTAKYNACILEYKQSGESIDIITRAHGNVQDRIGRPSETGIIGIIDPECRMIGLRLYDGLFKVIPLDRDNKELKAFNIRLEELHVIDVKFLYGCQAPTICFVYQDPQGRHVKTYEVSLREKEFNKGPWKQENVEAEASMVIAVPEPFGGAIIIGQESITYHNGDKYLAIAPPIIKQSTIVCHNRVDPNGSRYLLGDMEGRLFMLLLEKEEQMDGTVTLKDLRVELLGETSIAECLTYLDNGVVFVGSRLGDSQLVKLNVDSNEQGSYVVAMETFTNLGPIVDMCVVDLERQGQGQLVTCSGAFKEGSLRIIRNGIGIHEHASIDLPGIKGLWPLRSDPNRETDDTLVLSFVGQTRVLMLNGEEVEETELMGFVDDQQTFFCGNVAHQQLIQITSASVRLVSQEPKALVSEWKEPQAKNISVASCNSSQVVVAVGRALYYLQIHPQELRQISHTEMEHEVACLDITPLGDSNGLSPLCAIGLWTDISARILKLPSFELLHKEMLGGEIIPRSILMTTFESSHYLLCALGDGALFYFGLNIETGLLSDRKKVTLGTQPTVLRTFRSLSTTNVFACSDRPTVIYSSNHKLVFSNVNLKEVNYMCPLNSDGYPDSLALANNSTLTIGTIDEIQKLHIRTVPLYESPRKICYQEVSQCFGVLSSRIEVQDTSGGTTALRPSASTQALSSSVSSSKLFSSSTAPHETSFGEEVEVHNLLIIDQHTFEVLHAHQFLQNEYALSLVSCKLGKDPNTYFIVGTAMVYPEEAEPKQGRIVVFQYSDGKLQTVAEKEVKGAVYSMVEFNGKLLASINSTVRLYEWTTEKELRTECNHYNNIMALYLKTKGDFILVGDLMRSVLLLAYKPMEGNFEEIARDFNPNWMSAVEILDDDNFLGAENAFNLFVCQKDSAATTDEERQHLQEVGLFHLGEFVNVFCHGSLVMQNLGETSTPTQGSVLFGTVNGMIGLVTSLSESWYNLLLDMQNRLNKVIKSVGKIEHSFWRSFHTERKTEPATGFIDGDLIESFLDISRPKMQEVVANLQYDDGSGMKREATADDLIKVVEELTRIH
# ASSAY EXPLANATION: IKZF2 reporter degradation assay (HEK 293T IKZF2-mNeonGreen reporter cell line)
# Type: cell-based
# TEST CONTEXT: HEK 293T reporter cells, 24 hour incubation
REPORTED ENDPOINT: DC50 (nM)

Examples with answers:
COMPOUND: O=C1CCC(N2Cc3cc(O[C@H]4CCCC[C@@H]4N4CC(C5CC(F)(F)C5)C4)ccc3C2=O)C(=O)N1 (some centres unmarked)
DC50 [nM]: 29
//
COMPOUND: O=C1CCC(N2Cc3cc(O[C@H]4CCCC[C@@H]4N4CC(C5CC5)C4)c(F)cc3C2=O)C(=O)N1 (some centres unmarked)
DC50 [nM]: 25
//
COMPOUND: O=C1CCC(N2Cc3cc(O[C@H]4CCCC[C@@H]4N4CC(C5CCC(F)(F)CC5)C4)ccc3C2=O)C(=O)N1 (some centres unmarked)
DC50 [nM]: 3
//
COMPOUND: O=C1CCC(N2Cc3cc(O[C@H]4CCC[C@@H]4N4CC(C5CC5)C4)ccc3C2=O)C(=O)N1 (some centres unmarked)
DC50 [nM]: 9
//
COMPOUND: CC(C)OC1CCC(C2CN([C@H]3CCCC[C@@H]3Oc3ccc4c(c3)CN(C3CCC(=O)NC3=O)C4=O)C2)CC1 (some centres unmarked) [Compound 16]
DC50 [nM]: 1

P. O=C1CCC(N2Cc3cc(O[C@H]4CCCC[C@@H]4N4CC(C5CCC(OC(F)F)CC5)C4)ccc3C2=O)C(=O)N1 (some centres unmarked)
Q. O=C1CCC(N2Cc3cc(O[C@H]4CCCC[C@@H]4N4CC(C5CCCC5)C4)ccc3C2=O)C(=O)N1 (some centres unmarked)
Prompt: Param metric = DC50; output whichever of P , Q has the minimum value. In your reply, give the label of the chosen option.
Completion: P
(P: 2 nM, Q: 3 nM)

A. O=C1CCC(N2Cc3cc(O[C@H]4CCCC[C@@H]4N4CC(C5CC5)C4)ccc3C2=O)C(=O)N1 (some centres unmarked)
B. N#CC1(C2CN([C@H]3CCCC[C@@H]3Oc3ccc4c(c3)CN(C3CCC(=O)NC3=O)C4=O)C2)CCC1 (some centres unmarked)
C. O=C1CCC(N2Cc3cc(O[C@H]4CCCC[C@@H]4N4CC(C5CCC5)C4)c(F)cc3C2=O)C(=O)N1 (some centres unmarked)
Prompt: Ascending sort, DC50. A ranking is expressed here by listing the labels in the requested order.
Completion: B, A, C
(B: 3 nM, A: 12 nM, C: 20 nM)

----------
# ASSAY SYSTEM: IKZF2 (Helios) (Homo sapiens (Human), UniProt Q96SW2+Q9UKS7)
# ASSAY EXPLANATION: IKZF2 reporter degradation assay (HEK 293T IKZF2-mNeonGreen reporter cell line)
# Assay type: cell-based
# TEST CONTEXT: HEK-293T, 24 h, Table 3; 1 μM, HEK 293T reporter cells, 24 hour incubation
REPORTED ENDPOINT: inhibition at 1 µM (%)

COMPOUND: O=C1CCC(N2Cc3cc(O[C@H]4CCCC[C@@H]4N4CC(C5CCCCC5)C4)ccc3C2=O)C(=O)N1 (stereo partly shown)
inhibition at 1 µM (%): 85.1
--
COMPOUND: O=C1CCC(N2Cc3c(ccc(O[C@H]4CCCC[C@@H]4N4CC(C5CC5)C4)c3F)C2=O)C(=O)N1 (stereo partly shown)
inhibition at 1 µM (%): 85.8
--
COMPOUND: O=C1CCC(N2Cc3cc(O[C@H]4CCCC[C@@H]4N4CC(C5CCC(OC(F)F)CC5)C4)ccc3C2=O)C(=O)N1 (stereo partly shown)
inhibition at 1 µM (%): 86.7
--
COMPOUND: O=C1CCC(N2Cc3cc(O[C@H]4CCCC[C@@H]4N4CC(C5CC5)C4)c(F)cc3C2=O)C(=O)N1 (stereo partly shown)
inhibition at 1 µM (%): 77.8
